system: HOP-62 NSCLC; experiment: NCI tumour cell line growth inhibition, 48 h
Some compounds, each annotated with its measured TGI.

Below, each entry is followed by its recorded TGI result.
| compound | TGI |
| --- | --- |
| O=C(CCCN1CC=C(n2c(=O)[nH]c3ccccc32)CC1)c1ccc(F)cc1 | > 100 µM |
| Cc1cc(C)cc(C(=N)c2ccccc2Cc2cccc3ccccc23)c1 | 32.2 µM |
| COC(=O)/C=C/C1C(C(=O)OC)C2(C(=O)OC)CCC1(C(=O)OC)N2 (configuration not stated) | > 100 µM |

[Q] # return TGI for CCN(CC)CCn1nc(N)c2nc3cc(Cl)ccc3nc21 , test system: HOP-62 NSCLC
[A] > 100 µM

[Q] # return TGI of CN1CCc2c(Sc3ccc(C(=O)NO)cc3)c3ccccc3n2C1 (system: HOP-62 NSCLC)
[A] 6.12 µM

[Q] Give measured TGI for Clc1ccc(-c2c(C3=NCCN3)nnn2-c2ccc(Cl)cc2)cc1 (HOP-62 NSCLC).
[A] > 100 µM

[Q] Please look at Nc1nc(Br)nc2c1ncn2C1CC(O)C(CO)O1 (configuration not stated) and tell me its recorded TGI on HOP-62 NSCLC.
[A] > 100 µM

[Q] # return TGI for N#CC1Nc2ccccc2[C@@H](O)C1O (some centres not stated) , test system: HOP-62 NSCLC
[A] > 100 µM

[Q] Report TGI under test system HOP-62 NSCLC for CCCCCCCCCc1cc(=O)c2c(O)cccc2o1 .
[A] > 100 µM

====

Overview of recorded TGI for various compounds
test system: UO-31 renal; assay: NCI tumour cell line growth inhibition, 48 h
Use µM as the unit, but write only the number.

[Q] Please list TGI recorded for the compound Cc1c(C2Nc3ccccc3C2C)[nH]c2ccccc12 (stereo not given)
[A] 22.1

[Q] Give the reported value of TGI for this record: Cc1c[n+](Cc2ccc3ccccc3c2)cn1Cc1ccc2ccccc2c1
[A] 20.4

[Q] Fill in TGI for record COc1ccnc2c1C(=O)c1nc3ccccc3c3ccnc-2c13
[A] 0.894

[Q] // fetch TGI given entry CCCCCC(C[N+]1(C)CCOCC1)C(=O)/C=C/c1ccccc1 (stereo not given)
[A] 29.7

====

system: XF 498 CNS; experiment: NCI tumour cell line growth inhibition, 48 h
readout_label: TGI

[Q] State, in one line, measured TGI of CCN1CCN(c2ccc(Nc3ccnc4ccc5nn(C)nc5c34)cc2)CC1
[A] 26.9 µM

[Q] Identify measured TGI corresponding to COC(=O)c1ccc(/C=C2\N=C(C)OC2=O)cc1
[A] > 100 µM

[Q] Using known records, supply TGI for O=C1CSC(Cc2nc3ccccc3[nH]2)=N1
[A] 39.9 µM

[Q] # return recorded TGI for input Cc1cccc(NC(=O)/C=C/c2ccc(N(CCC#N)CCC#N)cc2C)c1
[A] > 100 µM

[Q] Read the entry O=C(CSc1nnc(-c2ccccc2NC(=O)C(F)(F)F)c(=O)[nH]1)NC(=O)Nc1ccccc1 and write its reported TGI.
[A] > 100 µM

[Q] Identify TGI associated with the molecule CN(C)C(=O)OCOC(=O)N(C)C
[A] > 100 µM

[Q] Please give the documented TGI of COc1cc2c(cc1OC)C(O)[C@H](Br)C(C)(C)O2 (stereo not given in full)
[A] > 100 µM

[Q] Output measured TGI for this item: O=C1NC(=O)C(CCO)(c2ccccc2)C(=O)N1
[A] > 100 µM

[Q] For Cc1cn(C2CC(N(O)Cc3ccccc3)C(CO)O2)c(=O)[nH]c1=O (stereo not given) , write its TGI.
[A] > 100 µM
